Measured values drawn from paper PMC5159881 for this set.

molecular target: AR1-651 (Homo sapiens, UniProt P10275); construct: FLAG; expressed in transfected cells; host or cells: 22RV1; test: MMTV-luc dual luciferase reporter assay, AR1-651-induced activity in 22RV1 cells; format: cell-based; conditions: 22RV1, AR1-651 +, compound 10 µM, 12 h, mean ± s.d., n=3
Sequence (P10275 1-651): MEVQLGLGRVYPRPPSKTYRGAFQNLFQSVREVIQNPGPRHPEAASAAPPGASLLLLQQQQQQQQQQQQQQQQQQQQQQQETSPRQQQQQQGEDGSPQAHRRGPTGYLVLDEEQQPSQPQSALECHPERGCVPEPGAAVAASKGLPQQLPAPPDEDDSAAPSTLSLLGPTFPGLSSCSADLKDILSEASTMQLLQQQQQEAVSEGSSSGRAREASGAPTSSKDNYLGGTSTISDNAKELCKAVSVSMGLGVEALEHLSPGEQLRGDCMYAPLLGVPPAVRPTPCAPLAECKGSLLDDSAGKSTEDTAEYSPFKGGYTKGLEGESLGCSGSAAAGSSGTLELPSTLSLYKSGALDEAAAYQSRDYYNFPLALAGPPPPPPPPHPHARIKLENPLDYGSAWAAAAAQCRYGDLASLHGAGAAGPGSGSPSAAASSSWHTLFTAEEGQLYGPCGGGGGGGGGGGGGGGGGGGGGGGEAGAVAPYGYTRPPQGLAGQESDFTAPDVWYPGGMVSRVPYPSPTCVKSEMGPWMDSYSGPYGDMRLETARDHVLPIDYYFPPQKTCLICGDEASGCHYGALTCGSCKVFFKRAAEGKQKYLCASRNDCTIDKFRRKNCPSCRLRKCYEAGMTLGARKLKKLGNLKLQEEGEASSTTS
Quick list: MMTV-luc Activity (%), AR1-651-induced per entry.
Reply numerically in %, unit not repeated.

// known answers, use as guide
INSERT INTO assay_data (compound_string, result_type, meas_value) VALUES
  ('O=C(/C=C/c1ccc(O)c2c1[C@H](C(=O)O[C@H](Cc1ccc(O)c(O)c1)C(=O)O)[C@@H](c1ccc(O)c(O)c1)O2)O[C@H](Cc1ccc(O)c(O)c1)C(=O)O', 'MMTV-luc Activity (%), AR1-651-induced', 96.3),
  ('CN1CCc2cc3c(cc2[C@H]1[C@@H]1OC(=O)c2c1ccc1c2OCO1)OCO3', 'MMTV-luc Activity (%), AR1-651-induced', 112.1);

Shifting focus to the compound that follows.
Would you mind telling me what MMTV-luc Activity (%), AR1-651-induced value was observed for `C=C[C@H]1[C@H](O[C@@H]2O[C@H](CO)[C@@H](O)[C@H](O)[C@H]2O)OC=C2C(=O)OCC[C@]21O` ?
64.7

---

Quick list: activity at 10 µM per entry.
target: AR1-651 (Homo sapiens, UniProt P10275); construct: FLAG; expressed in transfected cells; host or cells: 22RV1; experiment: MMTV-luc dual luciferase reporter assay, AR1-651-induced activity in 22RV1 cells; type: cell-based; settings: 22Rv1, read-out: MMTV-luc Activity (%), AR1-651-induced, 22RV1, AR1-651 +, compound 10 µM, 12 h, mean ± s.d., n=3;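 note: luminometric read-out of firefly luciferase signal normalized to Renilla luciferase signal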
Reply numerically in %, unit not repeated.

INSERT INTO measurements (molecule, u, meas_value) VALUES
  ('COc1cc(/C=C/c2ccc(O)cc2)cc(OC)c1 [Pterostilbene]', '%', 90),
  ('O=C(/C=C/c1ccc(O)c(O)c1)O[C@H](Cc1ccc(O)c(O)c1)C(=O)O [Rosmarinic acid]', '%', 115),
  ('Cc1coc2c1C(=O)C(=O)c1c-2ccc2c(C)cccc12 [Tanshinone I]', '%', 99.9),
  ('O=C1C=CC2(CCC23C=CC(=O)O3)O1 (stereo not shown) [Anemonin]', '%', 112);

Would you mind telling me what activity at 10 µM value was observed for C[C@@H]1O[C@@H](OC[C@H]2O[C@@H](Oc3c(-c4ccc(O)c(O)c4)oc4cc(O)cc(O)c4c3=O)[C@H](O)[C@@H](O)[C@@H]2O)[C@H](O)[C@H](O)[C@H]1O [Rutin] ?
91.4

Would you mind telling me what activity at 10 µM value was observed for C[C@@H]1CC[C@@]2(OC1)O[C@H]1C[C@H]3[C@@H]4CC=C5C[C@@H](O)CC[C@]5(C)[C@H]4CC[C@]3(C)[C@H]1[C@@H]2C [Diosgenin] ?
148

Would you mind telling me what activity at 10 µM value was observed for O=c1c(-c2ccc(O)cc2)coc2cc(O)ccc12 [Daidzein] ?
177

Would you mind telling me what activity at 10 µM value was observed for CC(C)[C@@H](C)/C=C/[C@@H](C)[C@H]1CC[C@H]2C3=CC=C4C[C@@H](O)CC[C@]4(C)[C@H]3CC[C@]12C [Ergosterol] ?
96.3

Would you mind telling me what activity at 10 µM value was observed for COc1cc(/C=C/C(=O)CC(=O)/C=C/c2ccc(O)c(OC)c2)ccc1O [Curcumin] ?
178

Would you mind telling me what activity at 10 µM value was observed for Cc1coc2c1C(=O)C(=O)c1c-2ccc2c1CCCC2(C)C [Tanshinone IIA] ?
105

Would you mind telling me what activity at 10 µM value was observed for C=C(C)[C@@H]1CC[C@]2(C(=O)O)CC[C@]3(C)[C@H](CC[C@@H]4[C@@]5(C)CC[C@H](O)C(C)(C)[C@@H]5CC[C@]43C)[C@@H]12 [Betulinic acid] ?
65.2

Would you mind telling me what activity at 10 µM value was observed for O=C1c2c(O)cc(O)cc2O[C@H](c2cc(O)c(O)c(O)c2)[C@H]1O [Dihydromyricetin] ?
89.8

Would you mind telling me what activity at 10 µM value was observed for CC(C)=CCC[C@](C)(O[C@@H]1O[C@H](CO)[C@@H](O)[C@H](O)[C@H]1O)[C@H]1CC[C@]2(C)[C@@H]1[C@H](O)C[C@@H]1[C@@]3(C)CC[C@H](O)C(C)(C)[C@@H]3[C@@H](O[C@@H]3O[C@H](CO)[C@@H](O)[C@H](O)[C@H]3O)C[C@]12C [Ginsenoside Rg1] ?
77.2

Would you mind telling me what activity at 10 µM value was observed for O=C(CCc1ccc(O)cc1)c1c(O)cc(O)cc1O[C@@H]1O[C@H](CO)[C@@H](O)[C@H](O)[C@H]1O [Phlorizin] ?
52.9

Would you mind telling me what activity at 10 µM value was observed for O=c1c(-c2ccc(O)cc2)coc2cc(O)cc(O)c12 [Genistein] ?
157

Would you mind telling me what activity at 10 µM value was observed for O=c1c(O[C@@H]2O[C@H](CO)[C@@H](O)[C@H](O)[C@H]2O)c(-c2ccc(O)c(O)c2)oc2cc(O)cc(O)c12 [Isoquercitrin] ?
95.5
